- Tested on: CYP3A4
- experiment description: Test Example 3: midazolam plasma AUC in dogs, alone or with concomitant diltiazem
- condition description: male, beagle, dog, po, 4 mg/dog
measured attribute: AUC

Q: Given `Cc1ncc2n1-c1ccc(Cl)cc1C(c1ccccc1F)=NC2` , state its recorded AUC.
Result: 55 ng·h/mL

###

- Tested on: CYP3A4
- experiment description: Test Example 4: midazolam plasma AUC in dogs, alone or with concomitant ketoconazole
- condition description: male, beagle, dog, po, 4 mg/dog
measured attribute: AUC (ng·h/mL)
# number only, unit ng·h/mL dropped from output

Q: What measured AUC goes with `Cc1ncc2n1-c1ccc(Cl)cc1C(c1ccccc1F)=NC2` ?
Result: 68.7
